Molecular target: rhLRP1 cluster II (Homo sapiens, UniProt Q07954)
Construct: rhLRP1 cluster II (aa 786-1165, C-terminal Fc, 1 μg); purchased R&D Systems; host or cells: NS0
Sequence (Q07954 786-1165): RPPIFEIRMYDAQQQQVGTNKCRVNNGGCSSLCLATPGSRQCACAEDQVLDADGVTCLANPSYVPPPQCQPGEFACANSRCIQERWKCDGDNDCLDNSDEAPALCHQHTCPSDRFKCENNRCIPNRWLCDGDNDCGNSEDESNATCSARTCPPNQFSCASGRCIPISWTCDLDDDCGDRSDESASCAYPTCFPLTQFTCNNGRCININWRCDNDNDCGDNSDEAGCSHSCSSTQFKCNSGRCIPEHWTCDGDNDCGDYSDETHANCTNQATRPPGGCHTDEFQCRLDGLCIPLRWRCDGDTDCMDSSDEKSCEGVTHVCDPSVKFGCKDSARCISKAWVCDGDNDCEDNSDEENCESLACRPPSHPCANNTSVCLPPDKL
Assay: Solid phase binding assay of RAP peptides
Positions of bridges follow the written chain, without caps; N, C: chain ends. No end group written: not given here.
VALUE TYPE: Kd

Ask: Could you tell me which Kd is on file for CEAKIEKHNHYQKQLEIAHEKLRHAESVGDGERVSRSREKHALLEGRTKELGYTVKKHGC (disulfide 1-60) [mRAP-14c] ?
Reply: ~21 nM
